Biological target: full-length TDP1 (Homo sapiens, UniProt Q9NUW8)
Sequence (Q9NUW8 whole entry): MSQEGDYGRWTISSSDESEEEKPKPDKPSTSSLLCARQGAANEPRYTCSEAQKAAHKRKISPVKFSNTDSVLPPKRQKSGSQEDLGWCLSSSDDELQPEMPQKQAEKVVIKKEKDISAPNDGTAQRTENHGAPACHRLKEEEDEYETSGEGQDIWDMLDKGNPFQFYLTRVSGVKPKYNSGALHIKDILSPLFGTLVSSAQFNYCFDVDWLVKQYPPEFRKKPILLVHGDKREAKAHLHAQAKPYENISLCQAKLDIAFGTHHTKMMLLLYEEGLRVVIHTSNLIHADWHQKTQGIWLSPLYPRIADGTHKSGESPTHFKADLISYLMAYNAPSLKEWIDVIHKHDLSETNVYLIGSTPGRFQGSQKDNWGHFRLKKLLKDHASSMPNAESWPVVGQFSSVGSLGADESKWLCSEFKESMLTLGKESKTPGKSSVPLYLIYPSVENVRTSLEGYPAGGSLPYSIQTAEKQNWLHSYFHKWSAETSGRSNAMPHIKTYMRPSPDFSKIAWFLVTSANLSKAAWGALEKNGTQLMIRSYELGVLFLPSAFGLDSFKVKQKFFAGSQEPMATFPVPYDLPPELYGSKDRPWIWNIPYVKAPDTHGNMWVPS
Assay: FRET-based TDP1 enzymatic activity inhibition assay
Format: biochemical
Bridge positions count the residues as written; N and C are the ends. Square brackets hold non-standard residues; d marks the D form. Ends that are not written are not given here. pGlu = O=C1CC[C@@H](C(=O)O)N1
TEST_READOUT: IC50 (nM)

{"columns": ["SUBSTANCE", "EXPERIMENTAL_TARGET", "RESULT_UNIT", "EXPERIMENTAL_RESULT"],
 "data": [
  ["[pGlu]EAFCYSDRFCQNYIGSIPDCCFGRGSYSFELQPPPWECYQC (disulfide 5-21, 11-39, 22-42) [Native recifin A, recifin A]", "full-length TDP1 (Homo sapiens, UniProt Q9NUW8)", "nM", 800],
  ["[pGlu]EAFCYSDRFCQNYIGSIPDCCFGRGSYSFELQPPPWECYQC (disulfide 5-21, 11-39, 22-42) [Synthetic recifin A, recifin A]", "full-length TDP1 (Homo sapiens, UniProt Q9NUW8)", "nM", 580]
]}
